pIC50, PIK3CD (Human): measured values
pIC50: −log10 of the molar value.
measured_endpoint: pIC50

{"smiles_input": "CS(=O)(=O)N1CCN(Cc2cc3nc(-c4cnc(N)nc4)nc(N4CCOCC4)c3s2)CC1", "pIC50": 7.80}
{"smiles_input": "CC1(C)CC(=O)c2sc(N3CCOc4ccccc43)nc2C1", "pIC50": 6.08}

a. CCOC(=O)c1ccc(-c2csc3c(=O)cc(N4CCOCC4)oc23)cc1
b. Cc1c(Cl)cccc1Cn1c(SCC(=O)O)nc(=O)c2sc(N3CCOCC3)nc21
Prompt: Compare the recorded pIC50 of a and b ; state which is larger. Write the label of whichever entry you select.
Completion: b

Hey, just so you know, these numbers are from the Kinase Knowledgebase extract (Sharma et al. 2016).
